Test: Cytotoxicity against human HaCaT cells assessed as reduction in cell viability measured after 48 hrs by MTT assay
Assay type: toxicity, cell-based
assay-metric: IC50 at 48 h (nM)
Output spec: scalar in nM, unitless text.

Prompt: Look up IC50 at 48 h for this molecule: `COc1ccc(/C=N/NC(=O)c2[nH]c3ccc(Br)cc3c2-c2ccccc2)s1`
Response: 340

Prompt: Same again, this time with `COc1ccsc1/C=N/NC(=O)c1[nH]c2ccc(Br)cc2c1-c1ccccc1`
Response: 540

Prompt: Same again, this time with `COc1csc(/C=N/NC(=O)c2[nH]c3ccc(Br)cc3c2-c2ccccc2)c1`
Response: 30

###

System: NCI-H522
Assay: Growth inhibition of human NCI-H522 cells measured after 48 hrs by sulforhodamine B assay
Format: functional
assay-metric: GI50

Prompt: Look up GI50 for this compound: `O=C(N/N=C/c1ccc(B(O)O)s1)c1[nH]c2ccc(Br)cc2c1-c1ccccc1`
Response: > 100 nM

Prompt: Same again, this time with `COc1csc(/C=N/NC(=O)c2[nH]c3ccc(Br)cc3c2-c2ccccc2)c1`
Response: < 10 nM

Prompt: Same again, this time with `O=C(N/N=C/c1ccsc1)c1[nH]c2ccc(Br)cc2c1-c1ccccc1`
Response: > 100 nM

Prompt: Same again, this time with `O=C(N/N=C/c1ccc(Br)s1)c1[nH]c2ccc(Br)cc2c1-c1ccccc1`
Response: < 100 nM

Prompt: Same again, this time with `O=C(N/N=C/c1ccc(Cl)s1)c1[nH]c2ccc(Br)cc2c1-c1ccccc1`
Response: < 100 nM
